tested on: human pluripotent cells (ESCs, iPSCs, ECCs); assay: ATP loss, summary over pluripotent cell lines; assay type: cell-based; conditions: read-out: IC50 ATP loss, on average; average over human pluripotent cells
observable: IC50 (nM)
Give bare numbers, in nM.

**Q:** Any idea what its IC50 is? The compound is `C(=N\Nc1nc(Nc2ccccc2)nc(N2CCOCC2)n1)/c1c[nH]c2ccccc12`
**A:** 1200

###

tested on: WA09/H9 ESC; experiment: Cellular ATP level; type: cell-based, human; conditions: read-out: IC50 ATP
observable: IC50 (nM)
One number for each entry, in nM.

**Q:** Any idea what its IC50 is? The compound is `C(=N\Nc1nc(Nc2ccccc2)nc(N2CCOCC2)n1)/c1c[nH]c2ccccc12`
**A:** 260
